Values were extracted from patent US11584747B2.

Items are presented alongside their recorded IC50.
Target: human DGKζ (Homo sapiens (Human), UniProt Q13574)
Sequence (Q13574 other isoform, or with tags, fused parts or gaps): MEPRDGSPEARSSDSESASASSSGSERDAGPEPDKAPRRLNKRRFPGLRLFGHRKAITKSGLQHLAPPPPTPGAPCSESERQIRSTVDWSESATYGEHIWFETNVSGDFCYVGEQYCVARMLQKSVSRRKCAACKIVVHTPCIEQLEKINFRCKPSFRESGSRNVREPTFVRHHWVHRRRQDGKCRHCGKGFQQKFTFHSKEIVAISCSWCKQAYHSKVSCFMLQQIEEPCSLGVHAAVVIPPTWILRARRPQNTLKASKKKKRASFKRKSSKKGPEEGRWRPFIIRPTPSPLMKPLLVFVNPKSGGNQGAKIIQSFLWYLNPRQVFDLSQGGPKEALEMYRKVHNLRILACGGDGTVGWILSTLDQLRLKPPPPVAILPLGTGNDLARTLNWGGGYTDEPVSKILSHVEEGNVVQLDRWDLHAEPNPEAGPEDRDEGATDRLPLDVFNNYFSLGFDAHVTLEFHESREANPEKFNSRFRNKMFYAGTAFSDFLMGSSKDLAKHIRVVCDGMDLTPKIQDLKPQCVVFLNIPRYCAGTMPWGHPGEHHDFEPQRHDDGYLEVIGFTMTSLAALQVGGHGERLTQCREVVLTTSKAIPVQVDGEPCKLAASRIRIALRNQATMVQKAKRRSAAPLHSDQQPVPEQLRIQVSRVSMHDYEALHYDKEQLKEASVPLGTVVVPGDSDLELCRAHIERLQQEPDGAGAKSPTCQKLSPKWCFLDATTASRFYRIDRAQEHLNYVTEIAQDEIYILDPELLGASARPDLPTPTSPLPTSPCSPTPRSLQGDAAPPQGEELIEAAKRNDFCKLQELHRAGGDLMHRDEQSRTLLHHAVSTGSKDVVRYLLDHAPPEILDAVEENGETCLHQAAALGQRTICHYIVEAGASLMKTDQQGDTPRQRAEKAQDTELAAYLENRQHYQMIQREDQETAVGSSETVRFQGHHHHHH
Assay: DGKζ LIPGLO assay (extruded liposome substrate, ADP-Glo luminescence)
Assay type: biochemical
Conditions: liposome assay; read-out: DGK zeta LIPGLO IC50
testReadout: IC50

INSERT INTO assay_data (molecule, testvalue) VALUES
  ('CCC(c1ccc(C(C)(C)C#N)cc1)N1C[C@H](CC)N(c2nc(=O)n(C)c3ccc(C#N)nc23)C[C@H]1CC (stereo partly drawn) [Example 251]', '0.018 µM'),
  ('CC[C@H]1CN(C(c2ccc(F)cc2)c2nc(C3CC3)nn2C)[C@H](CC)CN1c1nc(=O)n(C)c2ccc(C#N)nc12 (single isomer, unassigned) [Example 295]', '0.82 µM'),
  ('CC(c1ccc(OC(F)(F)F)cc1)N1C[C@H](C)N(c2nc(=O)n(C)c3ccc(C#N)nc23)C[C@H]1CO (single isomer, unassigned) [Example 184]', '45 µM'),
  ('CC[C@@H]1CN(c2nc(=O)n(C)c3ccc(C#N)nc23)[C@@H](CC)CN1Cc1ccc(C(F)(F)F)cc1F [Example 204]', '1.41 µM'),
  ('CC(C)c1ccc(CN2C[C@H](C)N(c3nc(=O)n(C)c4ccc(C#N)nc34)C[C@H]2C)cc1 [Example 137]', '0.19 µM'),
  ('CC[C@H]1CN(C(c2ccc(F)cc2)c2ccc(C(F)(F)F)cn2)[C@H](C)CN1c1nc(=O)n(C)c2ccc(C#N)nc12 (stereo partly drawn) [Example 114]', '0.44 µM');

====

Documented pIC50 across a set of molecules
Molecular target: human DGKα (Homo sapiens (Human))
Sequence (P23743 whole entry, looked up): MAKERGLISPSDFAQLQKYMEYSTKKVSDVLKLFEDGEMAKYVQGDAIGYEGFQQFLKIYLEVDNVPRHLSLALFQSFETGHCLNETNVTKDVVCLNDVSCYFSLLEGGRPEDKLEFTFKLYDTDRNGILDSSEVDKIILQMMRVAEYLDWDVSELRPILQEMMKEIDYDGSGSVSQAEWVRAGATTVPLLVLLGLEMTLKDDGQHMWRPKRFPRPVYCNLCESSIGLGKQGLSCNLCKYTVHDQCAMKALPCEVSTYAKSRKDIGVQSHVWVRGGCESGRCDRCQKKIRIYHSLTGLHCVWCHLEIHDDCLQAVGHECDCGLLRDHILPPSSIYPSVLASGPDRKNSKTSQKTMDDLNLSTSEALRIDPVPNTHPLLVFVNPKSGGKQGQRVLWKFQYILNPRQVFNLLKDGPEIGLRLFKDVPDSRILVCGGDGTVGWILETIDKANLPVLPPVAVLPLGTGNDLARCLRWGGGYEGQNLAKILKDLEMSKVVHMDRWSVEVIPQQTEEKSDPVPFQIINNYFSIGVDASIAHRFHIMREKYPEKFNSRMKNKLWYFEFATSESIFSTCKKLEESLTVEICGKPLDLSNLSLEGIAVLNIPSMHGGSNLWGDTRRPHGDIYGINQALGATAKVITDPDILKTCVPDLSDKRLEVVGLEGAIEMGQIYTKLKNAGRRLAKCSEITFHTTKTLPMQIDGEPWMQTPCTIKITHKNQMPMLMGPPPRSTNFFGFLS
Experiment: DGKα LIPGLO assay (extruded liposome substrate, ADP-Glo luminescence)
Type: biochemical
Conditions: liposome assay; read-out: DGK alpha LIPGLO IC50
pIC50: −log10 of the molar value.
testReadout: pIC50

INSERT INTO assay_data (molecule, testvalue) VALUES
  ('CC[C@H]1CN(C(C)c2ccc(OC(C)C)cc2)[C@H](CC)CN1c1nc(=O)n(C)c2ccc(C#N)nc12 (single isomer, unassigned) [Example 19]', 5.39),
  ('CC(c1ccc(OC(F)(F)F)c(F)c1)N1C[C@H](C)N(c2nc(=O)n(C)c3ccc(C#N)nc23)C[C@H]1C (single isomer, unassigned) [Example 161]', 5.68),
  ('CC[C@H]1CN(C(C)c2ccc(C(F)(F)F)cc2)[C@H](C)CN1c1nc(=O)n(C)c2ccc(C#N)nc12 (stereo partly drawn) [Example 117]', 8.70),
  ('CCC(c1ccc(OC(F)(F)F)cc1)N1C[C@H](CC)N(c2nc(=O)n(C)c3ccc(C#N)nc23)C[C@H]1CC (single isomer, unassigned) [Example 37]', 7.16),
  ('CC[C@@H]1CN(c2nc(=O)n(C)c3ccc(C#N)nc23)[C@@H](C)CN1C(C)c1ccc(OC(F)(F)F)cc1F (single isomer, unassigned) [Example 82]', 5.81),
  ('CC[C@@H]1CN(c2nc(=O)n(C)c3ccc(C#N)nc23)[C@@H](C)CN1C(C)c1ccc(OC)cc1 (single isomer, unassigned) [Example 57]', 6.02);

====

Biological target: human DGKα (Homo sapiens (Human))
Assay: DGKα LIPGLO assay (extruded liposome substrate, ADP-Glo luminescence)
Type: biochemical
Conditions: liposome assay; read-out: DGK alpha LIPGLO IC50
Catalogue of log10 of IC50 readings, one per entry.
testReadout: log10 of IC50 (log10 of the value in nM)

INSERT INTO measurements (molecule, testvalue) VALUES
  ('CC[C@H]1CN(C(C)c2ccc(OC(F)(F)F)cc2)[C@H](C)CN1c1nc(=O)n(C)c2ccc(C#N)nc12 (stereo partly shown) [Example 122]', 1.51),
  ('CC[C@H]1CN(C(c2ccc(OC(F)(F)F)cc2)c2cc(C3CC3)on2)[C@H](CC)CN1c1nc(=O)n(C)c2ccc(C#N)nc12 (single isomer, unassigned) [Example 43]', 1.34),
  ('CC[C@H]1CN(C(c2ccc(F)cc2)c2ccc(C(F)(F)F)cn2)[C@H](CC)CN1c1nc(=O)n(C)c2ccc(C#N)nc12 (single isomer, unassigned) [Example 2]', 1.51),
  ('CC[C@H]1CN(C(c2ccc(F)cc2)c2nc(C3CC3)nn2C)[C@H](CC)CN1c1nc(=O)n(C)c2ccc(C#N)nc12 (single isomer, unassigned) [Example 294]', 3.92),
  ('CC[C@@H]1CN(c2nc(=O)n(C)c3ccc(C#N)nc23)[C@@H](C)CN1C(c1ccc(F)cc1)c1ccc(C(F)(F)F)nc1 (single isomer, unassigned) [Example 97]', 2.80),
  ('CC(c1cc(F)c(F)c(F)c1)N1C[C@H](C)N(c2nc(=O)n(C)c3ccc(C#N)nc23)C[C@H]1C (single isomer, unassigned) [Example 138]', 3.38),
  ('CC(c1ccc(C2CC2)cc1)N1C[C@H](C)N(c2nc(=O)n(C)c3ccc(C#N)nc23)C[C@H]1C (single isomer, unassigned) [Example 3]', 2.28);
